Reference source for all entries: patent US20080021024A1

Molecular target: catalytic domain of MMP-13 enzyme (Homo sapiens, UniProt P45452)
pIC50: −log10 of the molar value.
Quick reference: pIC50 of the listed items.

Solved entries:
entry_smiles	measure	observed
CS(=O)(=O)c1ccc(CC(=O)Nc2cc(C(=O)NCc3ccc(-c4nnn[nH]4)cc3)ncn2)cc1	pIC50	< 8.30
N#Cc1ccc(CNC(=O)c2cc(NC(=O)Cc3ccc4c(c3)OCO4)ncn2)cc1	pIC50	> 6.00
Cc1cc(CNC(=O)c2cc(NS(=O)(=O)Cc3ccc(-c4nn[nH]n4)cc3)ncn2)ccc1F	pIC50	> 6.00
O=C(NCc1ccc(-c2nnn[nH]2)cc1)c1cc(NS(=O)(=O)Cc2ccccc2)ncn1	pIC50	< 8.30

Moving on to the next compound.
The reported catalytic domain of MMP-13 enzyme (Homo sapiens, UniProt P45452) pIC50 of CC(C)(C(=O)Nc1cc(C(=O)NCc2ccc(F)cc2)ncn1)c1ccc(-c2nnn[nH]2)cc1 is > 6.00
